FYI, the data here is from PubChem BioAssay AID220.

- Tested on: CD8F1 mice, subcutaneous mammary adenocarcinoma, T/C%
- PROCEDURE DETAILS: NCI In Vivo Anticancer Drug Screen. Data for tumor model Mammary Adenocarcinoma CD8F1 (subcutaneous) in CD8F1
- MEASUREMENT PARAMETERS: endpoint: median tumor weight (est.); dose: 50.0 mg/kg/injection; schedule: Q07DX005 (ip); vehicle: Klucel (hydroxypropylcellulose) (HPC); higher = larger tumour
Inconclusive results are not listed.
Would you mind telling me the reported T/C of each entry?

Solved cases (5 shown):
CC1CN=C(c2ccc(NC(=O)c3ccc(C(=O)Nc4ccc(C5=NCC(C)N5)cc4)cc3)cc2)N1 (configuration not stated) : 51 % of control
C1CCC2OCCOCCOC3CCCCC3OCCOCCOC2C1 (configuration not stated) : 83 % of control
O=S(=O)(SC(S(=O)(=O)c1ccccc1)S(=O)(=O)c1ccccc1)c1ccccc1 : 90 % of control
COC1C(/C=C/C(C)=O)OC2OC(C)(C)OC21 (configuration not stated) : 91 % of control
Clc1ccc(C(c2ccccc2Cl)C(Cl)Cl)cc1 (configuration not stated) : 175 % of control

Go through the list and state T/C for each entry.
1. CCCCCCC1C=Cc2ccccc21 (configuration not stated)
2. Cc1ccc(C(=O)[O][Hg][CH2]C2COC([CH2][Hg][O]C(=O)c3ccc(C)cc3)CO2)cc1 (configuration not stated)
3. OC1CCCC2CCC[N-]C12.OC1CCCC2CCC[N-]C12.[Mn+2] (configuration not stated)
4. Cc1ccc(S(=O)(=O)N/N=C/C(=O)O)cc1
5. C[C@]12CCC(=O)C=C1CC[C@@H]1[C@@H]2[C@@H](O)C[C@@]2(C)[C@H]1CC[C@]2(O)C(=O)CO
6. CC(=O)[O][Pb]([O]C(C)=O)([c]1ccccc1)[c]1ccccc1
7. O=C([CH-]C(=O)C(F)(F)F)c1ccccc1.O=C([CH-]C(=O)C(F)(F)F)c1ccccc1.O=C([CH-]C(=O)C(F)(F)F)c1ccccc1.O=C([CH-]C(=O)C(F)(F)F)c1ccccc1.[Eu+3].c1ccncc1

["86 % of control", "57 % of control", "81 % of control", "62 % of control", "76 % of control", "65 % of control", "103 % of control"]

Go through the list and state T/C for each entry.
1. CC(C)(Oc1ccc(-c2cccc3ccccc23)cc1)C(=O)O
2. CN(C(=S)S(=O)(=O)C12CC3CC(CC(C3)C1)C2)c1ccccc1

1: 52 % of control; 2: 77 % of control

Go through the list and state T/C for each entry.
1. NC(=O)c1ncn(C2OC(CO)C(O)C2O)c1O (configuration not stated)
2. CC(=O)OC1=NC(C)c2c1cc(OC(C)=O)[nH]c2=O (configuration not stated)

1. 85 % of control
2. 111 % of control

###

- System: CD8F1 mice, subcutaneous mammary adenocarcinoma, T/C%
- PROCEDURE DETAILS: NCI In Vivo Anticancer Drug Screen. Data for tumor model Mammary Adenocarcinoma CD8F1 (subcutaneous) in CD8F1
- MEASUREMENT PARAMETERS: endpoint: median tumor weight (est.); dose: 400.0 mg/kg/injection; schedule: Q07DX005 (ip); vehicle: saline with Tween-80; higher = larger tumour
Inconclusive results are not listed.
ASSAY METRIC: T/C

Solved cases (4 shown):
Nc1nc2c(ncn2C2OC(CO)C(O)C2O)c(=O)[nH]1 (stereo not given) : 110 % of control
Cc1ncc([N+](=O)[O-])n1CCSC(N)=O : 66 % of control
COc1ccc2cc1Oc1ccc(cc1)C[C@H]1c3cc(c(OC)cc3CCN1C)Oc1c(OC)c(OC)cc3c1[C@H](C2)N(C)CC3 : 37 % of control
CC(=O)Oc1ccc[nH]c1=O : 118 % of control

# context switch: different molecule, same T/C
Given the entry BrC1CC(Br)c2c1c1c(c3c2C(Br)CC3Br)C(Br)CC1Br (stereo not given) , report its measured T/C. 40 % of control

###

- System: CD8F1 mice, subcutaneous mammary adenocarcinoma, T/C%
- PROCEDURE DETAILS: NCI In Vivo Anticancer Drug Screen. Data for tumor model Mammary Adenocarcinoma CD8F1 (subcutaneous) in CD8F1
- MEASUREMENT PARAMETERS: endpoint: median tumor weight (est.); dose: 25.0 mg/kg/injection; schedule: Q07DX005 (ip); vehicle: Klucel (hydroxypropylcellulose) (HPC); higher = larger tumour
Records with an inconclusive call do not appear.
ASSAY METRIC: T/C

Go through the list and state T/C for each entry.
1. COC1C(/C=C/C(C)=O)OC2OC(C)(C)OC21 (stereo not given)
2. CN(C)N=Nc1cn[nH]c1C(N)=O
3. OCC1OC(n2cnc3c(NO)ncnc32)C(O)C1O (stereo not given)

99 % of control
97 % of control
66 % of control

Go through the list and state T/C for each entry.
1. C(C#CCN1CCOCC1)#CCN1CCOCC1
2. C1CCC2OCCOCCOC3CCCCC3OCCOCCOC2C1 (stereo not given)
3. Cc1ccc(C(=O)[O][Hg][CH2]C2COC([CH2][Hg][O]C(=O)c3ccc(C)cc3)CO2)cc1 (stereo not given)

181 % of control
70 % of control
117 % of control

Go through the list and state T/C for each entry.
1. COC1C(O)C(C)OC(OC2C(Oc3cccc4c(O)c5c(=O)oc6ccc(C)c7c(=O)oc(c34)c5c67)OC(C)C(O)C2O)C1O (stereo not given)
2. CCCCc1ccc(-n2c(C)c(COC(=O)NC)c(COC(=O)NC)c2C)cc1
3. CC(CN1CC(=O)NC(=O)C1)N1CC(=O)NC(=O)C1 (stereo not given)
4. Nc1ccc2nc3ccc(N)cc3[n+](-c3ccccc3)c2c1

1. 75 % of control
2. 111 % of control
3. 84 % of control
4. 80 % of control

###

- System: CD8F1 mice, subcutaneous mammary adenocarcinoma, T/C%
- PROCEDURE DETAILS: NCI In Vivo Anticancer Drug Screen. Data for tumor model Mammary Adenocarcinoma CD8F1 (subcutaneous) in CD8F1
- MEASUREMENT PARAMETERS: endpoint: median tumor weight change; dose: 5.0 mg/kg/injection; schedule: Q01DX001 (ip); vehicle: saline; higher = larger tumour
Records with an inconclusive call do not appear.
ASSAY METRIC: T/C

N[C@@H](Cc1ccc(N(CCCl)CCCl)cc1)C(=O)O : 4 % of control

Go through the list and state T/C for each entry.
1. Nc1ncnc2c1ncn2C1C=C(CO)C(O)C1O (centres undefined)
2. O=C1C(NCCO)=C(N2CC2)C(=O)C(NCCO)=C1N1CC1
3. CCOC(=O)NC1=C(N2CC2)C(=O)C(NC(=O)OCC)=C(N2CC2)C1=O

107 % of control
25 % of control
43 % of control

###

Would you mind telling me the reported T/C of each entry?
- Test system: CD8F1 mice, subcutaneous mammary adenocarcinoma, T/C%
- PROCEDURE DETAILS: NCI In Vivo Anticancer Drug Screen. Data for tumor model Mammary Adenocarcinoma CD8F1 (subcutaneous) in CD8F1
- MEASUREMENT PARAMETERS: endpoint: median tumor weight (est.); dose: 12.5 mg/kg/injection; schedule: Q07DX005 (ip); vehicle: saline; higher = larger tumour
Records with an inconclusive call do not appear.

Solved cases (5 shown):
C1CN(P2(N3CC3)=NP(N3CC3)(N3CC3)=NP(N3CC3)(N3CC3)=N2)CCO1 (stereo not given) : 44 % of control
O=c1[nH]c(=O)n(C2OC(CO)C(O)C2O)cc1F (stereo not given) : 45 % of control
C[N+](C)(C)c1ncnc2c1ncn2C1CCCO1 (stereo not given) : 85 % of control
COc1cccc2c1C(=O)c1c(O)c3c(c(O)c1C2=O)C[C@H](O)C[C@@H]3OC1CC(N)C(O)C(C)O1 (stereo not given in full) : 70 % of control
O=c1[nH]c(=O)c2nc(-c3cccnc3)cnc2[nH]1 : 122 % of control

Go through the list and state T/C for each entry.
1. CN(N=O)C(N)=O
2. CC1(C)CC(=O)C(CSC(=O)c2ccccc2)C(=O)C1
3. OCCN1CCN(CC/C=C2/c3ccccc3Sc3ccc(C(F)(F)F)cc32)CC1
4. Cc1ncc(CNC(=O)N(CCCl)N=O)c(N)n1
5. OC(CCl)CN1CC[N+]2(CC1)CC[N+]1(CCN(CC(O)CCl)CC1)CC2 (stereo not given)

103 % of control
102 % of control
120 % of control
20 % of control
57 % of control

###

Would you mind telling me the reported T/C of each entry?
- Test system: CD8F1 mice, subcutaneous mammary adenocarcinoma, T/C%
- PROCEDURE DETAILS: NCI In Vivo Anticancer Drug Screen. Data for tumor model Mammary Adenocarcinoma CD8F1 (subcutaneous) in CD8F1
- MEASUREMENT PARAMETERS: endpoint: mean tumor weight; dose: 25.0 mg/kg/injection; schedule: Q07DX006 (ip); vehicle: saline; higher = larger tumour
Results filed as inconclusive are left out.

Solved cases (3 shown):
O=c1[nH]cc(F)c(=O)[nH]1 : 105 % of control
C1CN2CN3CCN(CN1C3)C2 : 104 % of control
c1ccc(SSc2ccccn2)nc1 : 123 % of control

Given the entry `O=NN(CCCl)C(=O)NC1CCCCC1` , report its measured T/C. 61 % of control
